The origin of these recorded values is patent US20080004253A1.

Measured On: rat TRPV1 (Rattus norvegicus)
Sequence (O35433 whole entry): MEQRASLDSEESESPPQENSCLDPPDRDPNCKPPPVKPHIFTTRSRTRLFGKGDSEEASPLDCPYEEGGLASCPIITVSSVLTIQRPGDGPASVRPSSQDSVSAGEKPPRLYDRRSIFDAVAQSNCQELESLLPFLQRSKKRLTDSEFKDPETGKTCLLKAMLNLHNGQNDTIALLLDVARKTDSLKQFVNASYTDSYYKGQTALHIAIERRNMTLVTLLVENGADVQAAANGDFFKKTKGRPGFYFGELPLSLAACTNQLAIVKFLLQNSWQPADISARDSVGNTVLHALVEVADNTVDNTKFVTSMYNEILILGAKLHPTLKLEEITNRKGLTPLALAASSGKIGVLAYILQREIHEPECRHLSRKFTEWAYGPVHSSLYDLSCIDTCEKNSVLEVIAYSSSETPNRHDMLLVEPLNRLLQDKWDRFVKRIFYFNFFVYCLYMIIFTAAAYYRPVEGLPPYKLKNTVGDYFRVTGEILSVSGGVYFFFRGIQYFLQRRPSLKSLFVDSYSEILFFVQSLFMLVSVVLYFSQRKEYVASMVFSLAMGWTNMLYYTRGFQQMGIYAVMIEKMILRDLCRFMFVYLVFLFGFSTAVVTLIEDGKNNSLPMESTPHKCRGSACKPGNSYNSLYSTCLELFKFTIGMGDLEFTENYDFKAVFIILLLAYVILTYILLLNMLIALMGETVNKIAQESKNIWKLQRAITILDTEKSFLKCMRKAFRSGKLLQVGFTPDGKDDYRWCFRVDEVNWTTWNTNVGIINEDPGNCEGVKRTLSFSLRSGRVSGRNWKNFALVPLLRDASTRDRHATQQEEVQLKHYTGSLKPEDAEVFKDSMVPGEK
Test Details: Functional assay: block of capsaicin-induced Ca2+ influx, rat assay (rTRPV1/HEK293, FLIPR)
Assay Setup: rTRPV1/HEK293 cells, capsaicin challenge, Fluo-3 fluorescence; mean; > value = solubility limit in assay medium
Listing of recorded IC50 by entry.
Measurement Label: IC50 (nM)

> print(dat)
                            structure.string                    measured.on  bound.operator  value.reported
 1  Cc1cc(C(F)(F)F)ccc1Nc1ncnc2sc(Nc3c(C)cccc3C)nc12  rat TRPV1 (Rattus norvegicus)               =            1460
 2  Cc1nc(Nc2ccc(C(F)(F)F)nc2)c2nc(Nc3c(C)cccc3C)sc2n1  rat TRPV1 (Rattus norvegicus)               =              22
 3  CC(C)OC(=O)C(C)(C)c1ccc(Nc2ncnc3sc(Nc4c(Cl)cccc4Cl)nc23)cc1  rat TRPV1 (Rattus norvegicus)               =              81
 4  COc1nc(Nc2ccc(C(F)(F)F)cc2)c2nc(Nc3c(Cl)cccc3Cl)sc2n1  rat TRPV1 (Rattus norvegicus)               >           20000
 5  Cc1nc(Nc2ccc3c(c2)N(C)CCC3(C)C)c2nc(Nc3c(Cl)cccc3Cl)sc2n1  rat TRPV1 (Rattus norvegicus)               =               2
 6  Cc1nc(N(C)c2ccc(C(F)(F)F)cc2)c2nc(Nc3c(Cl)cccc3Cl)sc2n1  rat TRPV1 (Rattus norvegicus)               >           20000
 7  Cc1cccc(C)c1Nc1nc2c(Nc3ccc(C(C)(C)C#N)cc3)ncnc2s1  rat TRPV1 (Rattus norvegicus)               =               8
 8  CC(=O)c1ccc(Nc2ncnc3sc(Nc4c(C)cccc4C)nc23)cc1  rat TRPV1 (Rattus norvegicus)               =             121
 9  O=S(=O)(c1ccc(Nc2ncnc3sc(Nc4c(Cl)cccc4Cl)nc23)cc1)N1CCCC1  rat TRPV1 (Rattus norvegicus)               =               1
10  Cc1ccc(Nc2ncnc3sc(Nc4c(C)cccc4C)nc23)cc1O  rat TRPV1 (Rattus norvegicus)               >            6670
11  Cc1nc(Nc2ccc(N(C)S(C)(=O)=O)cc2)c2nc(Nc3c(C)cccc3C)sc2n1  rat TRPV1 (Rattus norvegicus)               =             626
12  O=S(=O)(c1ccc(Nc2ncnc3sc(Nc4ccccc4Cl)nc23)cc1)N1CCCC1  rat TRPV1 (Rattus norvegicus)               =              18
13  CSc1ccccc1Nc1nc2c(Nc3ccc(C(F)(F)F)cc3)ncnc2s1  rat TRPV1 (Rattus norvegicus)               =              37
14  CN[C@@H]1CCN(c2nc(Nc3ccc(C(F)(F)F)cc3)c3nc(Nc4c(Cl)cccc4Cl)sc3n2)C1  rat TRPV1 (Rattus norvegicus)               >           20000
15  Cc1nc(Nc2ccc(N(S(C)(=O)=O)S(C)(=O)=O)cc2)c2nc(Nc3c(Cl)cccc3Cl)sc2n1  rat TRPV1 (Rattus norvegicus)               >            6670
16  CCN(CC)c1nc(Nc2ccc(C(F)(F)F)cc2)c2nc(Nc3c(Cl)cccc3Cl)sc2n1  rat TRPV1 (Rattus norvegicus)               =              40
17  Cc1nc(Nc2ccc(C(C)C)cc2)c2nc(Nc3c(Cl)cccc3Cl)sc2n1  rat TRPV1 (Rattus norvegicus)               =               2
